// provenance: PubChem BioAssay (NCI)

- Tested on: SNB-19 CNS
- assay: NCI-60 one-dose screen, 48 h (100 = growth as untreated, 0 = no growth, -100 = all killed)
- conditionContext: 10 µM unless noted
This is part of a sample that, as a whole, favours compounds with a hit. Of some 83,000 tested, about 20% had one in any assay. Active and inactive are the calls of the source. The calls were made as follows: active = growth percent below 10; inactive = the rest.
observedProperty: growth

Query: State its growth on SNB-19 CNS: O=C(N/N=C/c1cccc(O)c1)c1ccc(C(F)(F)F)nc1Nc1cccc(C(F)(F)F)c1
Reply: 26.2% (inactive)

Query: State its growth on SNB-19 CNS: CCOC(=O)CCN(c1c(Cl)ssc1=O)C(C)C
Reply: 109% (inactive)

Query: State its growth on SNB-19 CNS: COc1ccc2c(c1)CC[C@@H]1[C@@H]2CC[C@]2(C)[C@@H](O)C(=O)C[C@@H]12
Reply: 102% (inactive)

Query: State its growth on SNB-19 CNS: CNc1nc(NC2CCCC2)nc(Sc2ccc(OC)cc2)n1
Reply: 40.4% [100 µM] (inactive)

Query: State its growth on SNB-19 CNS: Nc1ncnc2c1CN(Cc1ccccc1)CC2
Reply: 104% (inactive)

Query: State its growth on SNB-19 CNS: Cc1cc2c(cc1C)[n+](Cc1ccc3ccccc3n1)cn2Cc1ccc2ccccc2n1
Reply: 16.4% (inactive)

Query: State its growth on SNB-19 CNS: NS(=O)(=O)c1cc2c(cc1Cl)NC=NS2(=O)=O
Reply: 107% (inactive)

Query: State its growth on SNB-19 CNS: Cc1ccc(C(NC(=O)c2ccccc2)c2ccc3cccnc3c2O)cc1 (stereo unspecified)
Reply: 19.9% (inactive)

Query: State its growth on SNB-19 CNS: O=C(CNC(=O)c1cccc2ccccc12)Nc1ccccc1Oc1ccc(O)cc1
Reply: 51.9% [5 µM] (inactive)

Query: State its growth on SNB-19 CNS: O=c1c2ccccc2c2nccn2c2cc(Cl)ccc12
Reply: 119% (inactive)

Query: State its growth on SNB-19 CNS: CC(=O)Nc1ccc(C(=O)COc2cccc(/C=C3\CCc4ccccc4C3=O)c2)cc1
Reply: 94.1% (inactive)

---

For each of the compounds below, state its growth.
- System: SF-539 CNS
- assay: NCI-60 one-dose screen, 48 h (100 = growth as untreated, 0 = no growth, -100 = all killed)
- conditionContext: 10 µM unless noted
The panel holds about 83,000 compounds, 20% with a hit somewhere; the sample as a whole holds those more often.
A number alone suffices; assume %.

Query: Need growth of COc1cnc2c(c1)C(=O)c1c-2n(CCCN2CCCC2)c(=O)c2cc(F)ccc12 , thanks.
Reply: -39.3

Query: Need growth of COc1ccc(OC)c(CCn2cncc2-c2c[nH]c3cc(Br)ccc23)c1 , thanks.
Reply: 56.3

Query: Need growth of Fc1ccc(-c2nn3c(-c4cc(C(F)(F)F)cc(C(F)(F)F)c4)nnc3s2)cc1 , thanks.
Reply: 39.7

Query: Need growth of COc1ccc2nc(N/N=C(\C)c3ccccn3)cc(C)c2c1 , thanks.
Reply: -90.6

Query: Need growth of Cc1cc(Cl)ccc1Nc1nc(C(F)(F)F)ccc1C(=O)N/N=C/c1ccc(Cl)cc1 , thanks.
Reply: 0.0279

Query: Need growth of Cc1nn(-c2ccccc2)cc1/C=C1\SC(N2CCCCC2)=NC1=O , thanks.
Reply: 60.9

Query: Need growth of CCSCC1CC(O)(c2ccccc2)C(c2ccccc2)C(c2ccc(Cl)cc2)O1 (stereo not given) , thanks.
Reply: -16.4

Query: Need growth of Nc1nc2c(nnn2Cc2ccc(Cl)c(Cl)c2)c(=O)[nH]1 , thanks.
Reply: 98.3

Query: Need growth of COC(=O)CC1=C(c2ccc([N+](=O)[O-])cc2)CCC1=O , thanks.
Reply: 97

Query: Need growth of Nc1ccc2c(c1)C(=O)c1cc(Cl)c(Cl)cc1-2 , thanks.
Reply: 87.4

---

- Tested on: COLO 205 colon
- assay: NCI-60 one-dose screen, 48 h (100 = growth as untreated, 0 = no growth, -100 = all killed)
- conditionContext: 10 µM unless noted
About 83,000 compounds went through this panel and 20% of them were active in at least one assay; those are over-represented in the sample as a whole.
observedProperty: growth (%)
A number alone suffices; assume %.

Query: Need growth of COc1c(Br)cc(C(c2cc(Br)c(OC)c(Br)c2)c2ccccc2C(=O)O)cc1Br , thanks.
Reply: 110

Query: Need growth of C/C(=C\CCc1ccsc1)CC/C=C(\C)CCCN1CCSCC1 , thanks.
Reply: 85.6

Query: Need growth of COc1cc(C2=NN(C=O)C(c3cccc(Nc4ccnc5cc(Cl)ccc45)c3)C2)cc(OC)c1OC (centres undefined) , thanks.
Reply: 66.1

Query: Need growth of O=c1ccn(C2CC=C(CO)O2)c(=O)[nH]1 (centres undefined) , thanks.
Reply: 106

Query: Need growth of COc1ccc(-n2cnc3cc(C(=O)N4CCCCC4)ccc32)cc1 , thanks.
Reply: 105

Query: Need growth of c1ccc2nc(N/N=C3\CCCCC3C3CCCCC3)ccc2c1 (centres undefined) , thanks.
Reply: 41

Query: Need growth of O=C(c1ccccc1)C(CN1CCCCC1)c1ccccc1 (centres undefined) , thanks.
Reply: 10.1

Query: Need growth of CSc1nc(-c2ccc(O)cc2O)c2c(=O)[nH]c(Nc3ccc(S(=O)(=O)Nc4nc(C)cc(C)n4)cc3)nc2n1 , thanks.
Reply: 112

Query: Need growth of Cc1ccc2nc(SCC(=O)Nc3ccc(-c4nc5ccccc5s4)c(Cl)c3)[nH]c2c1 , thanks.
Reply: 107

Query: Need growth of Cc1cc(=O)oc2cc(OCCn3c(C)nn(-c4ccc(Cl)cc4)c3=O)ccc12 , thanks.
Reply: 10.6

Query: Need growth of Cc1cc(Br)c(C)cc1Br , thanks.
Reply: 110

Query: Need growth of C[C@H](C(=O)N[C@@H](Cc1ccc(-c2ccccc2)cc1)C(=O)NC1CC(C)(C)N(C)C(C)(C)C1)c1ccc(-c2ccccc2)c(F)c1 , thanks.
Reply: -69.6

Query: Need growth of O=c1[nH]c(N2CCC(Cc3ccccc3)CC2)nc2sc3c(c12)CCCC3 , thanks.
Reply: 105

Query: Need growth of COP(=O)(OC)C(c1ccccc1)(c1ccccc1)c1ccccc1 , thanks.
Reply: 103

Query: Need growth of COc1cccc(-c2nc(-c3ccc(N)cc3)co2)c1 , thanks.
Reply: 141

Query: Need growth of COC(=O)c1c(NC(=O)CSc2nnnn2-c2ccc(OC)cc2)sc(C)c1C , thanks.
Reply: 105

Query: Need growth of COc1cccc(C=Nc2cc(C(C)C)c(O)cc2C)c1O , thanks.
Reply: 98.6

Query: Need growth of COc1ccc(-c2c3c(N)nc(-c4ccncc4)nc3nc3c2c(C)nn3-c2ccccc2)cc1 , thanks.
Reply: 38.6

Query: Need growth of Cc1nn(-c2nc3ccccc3s2)c(C)c1Oc1ccccc1O , thanks.
Reply: 92.3

Query: Need growth of COc1ccc(/C=C2/SC(=Nc3c(C)nn(-c4ccccc4)c3N)NC2=O)cc1 , thanks.
Reply: 43.7

Query: Need growth of O=C(Nc1ccc(Cl)cc1)Nc1ccccc1CNc1nc(Nc2ccc(OCCN3CCCC3)cc2)ncc1Cl , thanks.
Reply: 37.8

Query: Need growth of C/C(=C\CCc1ccoc1)CC/C=C(\C)CCCC1COC(=O)C1 (centres undefined) , thanks.
Reply: 109

Query: Need growth of O=C(/C=C/c1ccc(C(F)(F)F)cc1)c1ccc(Nc2nc(NCCO)nc(NCCO)n2)cc1 , thanks.
Reply: 37.3

Query: Need growth of COc1cccc(N2CCN(c3cccc(C)n3)CC2)c1 , thanks.
Reply: 123

Query: Need growth of CCCCCCCSc1ncnc2[nH]ncc12 , thanks.
Reply: 93.9

Query: Need growth of COC(=O)C1=CCC(n2cnc3c(N)ncnc32)O1 (centres undefined) , thanks.
Reply: 103

Query: Need growth of N#Cc1c(-c2ccccc2)cc(-c2ccccc2)n(CCCC(=O)O)c1=O , thanks.
Reply: 109

Query: Need growth of Nc1nc(SCc2cccnc2)c2ncn(C3OC(CO)C(O)C3O)c2n1 (centres undefined) , thanks.
Reply: 114

Query: Need growth of NC(=N\N=C/Cc1ccccc1)/C(N)=N\N=C\Cc1ccccc1 , thanks.
Reply: 117

Query: Need growth of CCN(CC)CCSc1ncnc2c1cnn2-c1ccc(S(N)(=O)=O)cc1 , thanks.
Reply: 113

Query: Need growth of OC(c1ccccc1)C(NCc1ccccc1)c1ccccc1 (centres undefined) , thanks.
Reply: 116

Query: Need growth of COc1cnc2c(c1)C(=O)c1c-2n(CCCNC(C)C)c(=O)c2cc(F)ccc12 , thanks.
Reply: -19.7

Query: Need growth of c1ccc(Nc2ccc(Nc3nc(-c4ccccc4)nc4ccccc34)cc2)cc1 , thanks.
Reply: 78.5

Query: Need growth of Clc1ccc2c(c1)C(Br)c1cc(Cl)cc(Cl)c1-2 (centres undefined) , thanks.
Reply: 103

Query: Need growth of COC(=O)c1cc2c(/C=C3/NC(=S)NC3=O)coc2n1C , thanks.
Reply: 97.7

Query: Need growth of O=C(CC1Sc2ccccc2NC1=O)NNc1cccc(Cl)c1Cl (centres undefined) , thanks.
Reply: 82.2

Query: Need growth of CC(C)C[C@H](NC(=O)/C=C/Cn1ccc2ccccc2c1=O)B(O)O , thanks.
Reply: 49.7

Query: Need growth of Cc1ccc2nc3c(n2c1)C(=O)C(=O)c1ccccc1-3 , thanks.
Reply: -69.2

Query: Need growth of CCOC(=O)c1sc(NC(=O)COc2cccc(/C=C3\CCc4cc(OC)ccc4C3=O)c2)nc1C , thanks.
Reply: 135

Query: Need growth of NC(=O)c1cc(Br)cc(Br)c1NS(=O)(=O)c1ccccc1 , thanks.
Reply: 101

Query: Need growth of COc1ccc(CC(=O)Nc2nn3c(-c4cc(C(F)(F)F)cc(C(F)(F)F)c4)nnc3s2)cc1 , thanks.
Reply: 104

Query: Need growth of O=C(Nc1ccc2c(c1)C(=O)c1ccccc1-2)c1ccccc1 , thanks.
Reply: 97.8

Query: Need growth of Cc1ccc(-c2csc(N)n2)cc1 , thanks.
Reply: 115

Query: Need growth of COc1ccc2ncccc2c1Cc1c(OC)ccc2ncccc12 , thanks.
Reply: 79.9
